Experiment: FRG1 expression reporter modulators in myotubes – cell-based, C2C12 myotubes, firefly/Renilla luciferase, luminescence, FRG1 inhibition for FSHD, primary screen (AID 1084)
Settings: FRG1 promoter luciferase, higher = more signal, called active from +8 up or from −8 down

>  <compound>
COC(=O)c1c2oc(c1C(=O)OC)C(=O)N[C@@H](C(C)C)Cn1cc(nn1)C1(CCCCC1)NC(=O)N[C@H](CO)CC2

>  <z-score>
-0.965

$$$$
>  <compound>
O=C1O[C@@H](c2ccccc2)[C@@H](c2ccccc2)N2[C@@H](c3ccc(OCCO)cc3)[C@]3(C(=O)Nc4ccc(C#CC5=CCCCC5)cc43)[C@@H](C(=O)N3CCCCCCC3)[C@H]12

>  <z-score>
1.75

$$$$
>  <compound>
C#CCOc1ccc(C[C@@H](C(=O)OC)N(CC#C)[C@@H](/C=C/C2CC2)[C@H](O)Cc2ccccc2)cc1

>  <z-score>
-4.34

$$$$
>  <compound>
C=C(CCCC)/C(=C/C[C@@H](OC(C)=O)c1ccccc1OCCO)c1cc(C(=O)OC)ccc1OC

>  <z-score>
0.549

$$$$
>  <compound>
CC(=CC1CCCCC1)[C@@H](NC(=O)c1cccnc1)c1ccc(-c2ccccc2)cc1

>  <z-score>
-0.972

$$$$
>  <compound>
O=C1C2C=CC(C(O)c3ccc(F)cc3)N(Nc3ccc([N+](=O)[O-])cc3)C2C(=O)N1c1ccccc1 (stereo unspecified)

>  <z-score>
-0.132

$$$$

###

Tested on: XIP peptide (Xip251-270)
Experiment: compounds binding XIP fragment 251-270 – biochemical, small-molecule microarray, fluorescence 635/667 nm, 0.5 µg/mL protein, primary screen (AID 1183)
Details: fluorescence 635 nm, higher = more signal
Output yes (1) for composite z-score not less than 0.8; output no (0) otherwise.

>  <compound>
CO[C@H]1O[C@H](CO)[C@@H](OC(=O)Nc2ccccc2)[C@@H]2OC(=O)[C@@H](Cc3ccc4ccccc4c3)C/C=C/C[C@H](Cc3ccc4ccccc4c3)C(=O)O[C@@H]12

>  <testedSystem>
XIP peptide (Xip251-270)

>  <classLabel>
no (0)

$$$$
>  <compound>
CCCC1(C(=O)OC)C=C2C(=C(c3ccccc3)C(=O)C2C)CN1 (stereo not given)

>  <testedSystem>
XIP peptide (Xip251-270)

>  <classLabel>
yes (1)

$$$$
>  <compound>
COc1ccc([Si](C)(C)[C@@H]2[C@@H](CCn3cc([C@H](O)c4ccccc4)nn3)O[C@]3(C(=O)N(Cc4cccc(N5CCC5=O)c4)c4ccccc43)[C@H]2C)cc1

>  <testedSystem>
XIP peptide (Xip251-270)

>  <classLabel>
no (0)

$$$$

###

Each entry below carries its reported composite z-score.
Molecular target: Alpha-bungarotoxin (Bungarus multicinctus) (UniProt P60615)
Sequence (P60615 whole entry, looked up): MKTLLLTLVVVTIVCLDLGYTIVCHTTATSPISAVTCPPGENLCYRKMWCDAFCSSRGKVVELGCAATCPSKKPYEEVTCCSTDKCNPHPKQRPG
Assay: compounds binding labelled alpha-BTX control protein – biochemical, small-molecule microarray, Alexa647 label, 635/667 nm fluorescence, artefact control for SMM control protein annotation, profiling panel (AID 1117)
Details: alpha-BTX-A647 binding fluorescence, higher = more signal
measuredParameter: composite z-score

>  <molecule>
C=C(CCCC)/C(=C/C[C@H](OC(C)=O)c1ccccc1OCCO)c1cnc2ccccc2c1

>  <measuredParameter>
composite z-score

>  <measuredResult>
0.887

$$$$
>  <molecule>
C=CCN1Cc2ccccc2[C@@H]2OC(c3ccc(OCCCO)cc3)=N[C@]2(CCS(=O)(=O)c2ccccc2)C1=O

>  <measuredParameter>
composite z-score

>  <measuredResult>
1.42

$$$$
>  <molecule>
C#CCN1[C@@H](Cc2ccc(O)cc2)C(=O)O[C@H](Cc2ccccc2)[C@@H]1/C=C/C1CC1

>  <measuredParameter>
composite z-score

>  <measuredResult>
0.0577

$$$$
>  <molecule>
COc1ccc(C(=O)Nc2ccc(CN3C(=O)[C@]4(O[C@H](CC(=O)N5CCC[C@H]5CO)[C@@H]([Si](C)(C)c5ccc(OC)cc5)[C@@H]4C)c4ccccc43)cc2)cc1

>  <measuredParameter>
composite z-score

>  <measuredResult>
0.748

$$$$
>  <molecule>
O=C1C2C=CC(C(O)c3ccc(-c4ccccc4)s3)N(Nc3ccccc3)C2C(=O)N1c1ccccc1 (stereo not given)

>  <measuredParameter>
composite z-score

>  <measuredResult>
1.46

$$$$
